Reported values of pKd for individual entries
- target or system: T1, EsCas13d, nuclease-dead (Eubacterium siraeum, UniProt B0MS50, R295A;H300A;R849A;H854A)
- T1 sequence: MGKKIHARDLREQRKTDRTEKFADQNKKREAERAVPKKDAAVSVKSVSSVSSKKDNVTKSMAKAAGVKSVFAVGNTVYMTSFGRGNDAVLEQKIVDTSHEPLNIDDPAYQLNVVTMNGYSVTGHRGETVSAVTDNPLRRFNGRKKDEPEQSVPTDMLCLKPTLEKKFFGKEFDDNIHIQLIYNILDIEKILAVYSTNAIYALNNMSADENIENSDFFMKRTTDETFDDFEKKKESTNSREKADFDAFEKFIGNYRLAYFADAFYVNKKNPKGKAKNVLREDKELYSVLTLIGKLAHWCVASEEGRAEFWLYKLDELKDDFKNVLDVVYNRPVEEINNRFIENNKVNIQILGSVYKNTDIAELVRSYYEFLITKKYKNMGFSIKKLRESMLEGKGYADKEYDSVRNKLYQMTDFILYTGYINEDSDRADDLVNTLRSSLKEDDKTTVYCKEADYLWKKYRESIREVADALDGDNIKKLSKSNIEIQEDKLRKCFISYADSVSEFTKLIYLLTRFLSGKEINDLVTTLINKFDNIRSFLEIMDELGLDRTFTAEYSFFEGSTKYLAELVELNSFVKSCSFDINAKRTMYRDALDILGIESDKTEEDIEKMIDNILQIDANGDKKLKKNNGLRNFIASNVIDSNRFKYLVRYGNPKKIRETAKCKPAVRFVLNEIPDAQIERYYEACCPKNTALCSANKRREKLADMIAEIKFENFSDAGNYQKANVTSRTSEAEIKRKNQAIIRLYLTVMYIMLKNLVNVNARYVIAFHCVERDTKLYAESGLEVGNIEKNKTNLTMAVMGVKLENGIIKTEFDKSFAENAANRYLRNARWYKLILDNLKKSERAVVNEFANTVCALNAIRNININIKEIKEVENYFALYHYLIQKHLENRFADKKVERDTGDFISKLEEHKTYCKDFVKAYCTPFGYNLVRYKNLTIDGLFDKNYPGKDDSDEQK
- experiment summary: crRNA (strand 1, pre-loaded); Mg2+; 40 mM Tris-HCl pH 7.5, 150 mM NaCl, 6 mM MgCl2, 1 mM DTT, 0.1% Tween-20, 0.2 mg/ml BSA; 25 C; 10 min per concentration, then washed
- condition details: tags: His6-TwinStrep-SUMO cleaved; N-terminal SNAP kept (SNAP-Surface 488); label: 3' end held by stalled T7 RNA polymerase
pKd: −log10 of the molar value.
measurement kind: pKd

binder | measurement kind | observed result
target 1 insC 3' of 9,insC 3' of 3 (mixed) RNA 1: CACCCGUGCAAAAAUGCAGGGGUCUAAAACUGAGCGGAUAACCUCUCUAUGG RNA 2: GGGAAUGGAUCCACAUCUACGAAUUCGUACCAUAGAGAGGUUACUCCGCUCCACCGAGAUCGGAAGAGCACACGU | pKd | 7.96
target 1 MT 5'PFS GUC 3'PFS ACG (mixed) RNA 1: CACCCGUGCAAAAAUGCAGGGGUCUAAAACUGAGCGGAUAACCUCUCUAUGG RNA 2: GGGAAUGGAUCCACAUCUACGAAUUCGUCCCAUAGAGAGGUUAUCCGCUCAACGAGAUCGGAAGAGCACACGU | pKd | 7.60
target 1 insU 3' of 14,insA 3' of 2 (mixed) RNA 1: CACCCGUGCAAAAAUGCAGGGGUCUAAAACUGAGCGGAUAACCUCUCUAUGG RNA 2: GGGAAUGGAUCCACAUCUACGAAUUCGUACCAUAGAGAUGGUUAUCCGCUCAACCGAGAUCGGAAGAGCACACGU | pKd | 7.37
target 2 MT 5'PFS UGA 3'PFS AUA (mixed) RNA 1: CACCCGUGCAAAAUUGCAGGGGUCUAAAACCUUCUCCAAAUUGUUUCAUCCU RNA 2: GGGAAUGGAUCCACAUCUACGAAUUCUGAAGGAUGAAACAAUUUGGAGAAGAUAAGAUCGGAAGAGCACACGU | pKd | 8.15
